Hello, the source for this data is ChEMBL document CHEMBL4665637, in case you need it.

Tested on: Human betaherpesvirus 5
ASSAY EXPLANATION: Antiviral activity against HCMV infected in human ARPE-19 cells at 7.5 uM measured after 3 days post infection
Format: functional, cell-based
The source made the active and inactive calls. No cut-off for these calls is given here.
MEASURED QUANTITY: Activity

[[record]]
molecule = "Cc1nc(-c2ccc(C3Nc4ccc([N+](=O)[O-])cc4C(=O)N3c3ccccc3)s2)cs1 (centres undefined)"
reported_measurement = "Active"

[[record]]
molecule = "Cc1nc(-c2ccc(C3Nc4ccc(C#N)cc4C(=O)N3c3ccccc3)s2)cs1 (centres undefined)"
reported_measurement = "Active"

[[record]]
molecule = "Cc1nc(-c2ccc(C3N(C)c4ccc(C#N)cc4C(=O)N3c3ccccc3)s2)cs1 (centres undefined)"
reported_measurement = "Active"

[[record]]
molecule = "Cc1nc(-c2ccc(C3N(C)c4ccc([N+](=O)[O-])cc4C(=O)N3c3ccccc3)s2)cs1 (centres undefined)"
reported_measurement = "Active"


* * *

System: Vero
ASSAY EXPLANATION: Cytotoxicity in African green monkey VERO cells assessed as cell viability at 10 uM incubated for 96 hrs by CellTiter-Glo Luminescent assay
Type: cell-based
CONDITION INFO: chlorocebus sabaeus, dose 100 µM
MEASURED QUANTITY: Activity

[[record]]
compound = "Cc1nc(-c2ccc(C3Nc4ccc(C#N)cc4C(=O)N3c3ccccc3)s2)cs1 (centres undefined)"
test_target = "Vero"
measured_quantity = "Activity"
reported_measurement = "Toxic"

[[record]]
compound = "Cc1nc(-c2ccc(C3N(C)c4ccc([N+](=O)[O-])cc4C(=O)N3c3ccccc3)s2)cs1 (centres undefined)"
test_target = "Vero"
measured_quantity = "Activity"
reported_measurement = "Toxic"

[[record]]
compound = "Cc1nc(-c2ccc(C3N(C)c4ccc(C#N)cc4C(=O)N3c3ccccc3)s2)cs1 (centres undefined)"
test_target = "Vero"
measured_quantity = "Activity"
reported_measurement = "Toxic"

[[record]]
compound = "Cc1nc(-c2ccc(C3Nc4ccc([N+](=O)[O-])cc4C(=O)N3c3ccccc3)s2)cs1 (centres undefined)"
test_target = "Vero"
measured_quantity = "Activity"
reported_measurement = "Toxic"

